- PROCEDURE DETAILS: yeast display, Sf9 membrane polyspecificity reagent, FACS + sequencing; frameworks hold sequencing errors
REPORTED METRIC: polyreactivity (PSR sort gate)

Some entries whose results are on file:
| RESIDUE SEQUENCE | RECORDED RESULT |
| --- | --- |
| QVQLVESGGGLVQAGGSLRLSCAASGRIFVFYAMGWYRQAPGKERELVAAISKSVGPTYYADSVKGRFTISRDNAKNTVYLQMNSLKPEDTAVYYCASDVDRFFTYKYDYWGQGTQVTVSS | low polyreactivity |
| QVQLVESGGGLVQAGGSLSLSCAASGYTFPYYTMGWYRQAPGKERELVATITRRGDSTYYADSVKGRFTISRDNAKNTVYLQMNSLKPEDTAVYYCNTASYGRHQFRKSSKMDYWGQGTQVTVSS | high polyreactivity |
| QVQLVDSGGGLVQAGGSLRLSCAASGSTLGENAMGWYRQAPGKERELVSAIRQSSGRTYYADSVKGRFTISRDNAKNTVYLQMNSLKPEDTAVYYCANYYWGQGTQVTVST | low polyreactivity |
| QVQLVESGGGLVQAGGSLRLSCAASGSTFYVNAMGWYRQAPGKERELVASISSSSGSTYYADSVKGRFTISRDNAKNTVYLQMNSLKPEDTAVYYCAAEVGIFIWFDYWGQGTQVTVSS | low polyreactivity |

Now, please, on to the next sequence.
Would you mind telling me what polyreactivity (PSR sort gate) value was observed for QVHLVESGGGLVQAGGSLRLSCAASGFIFDFNTMGWYRQAPGKETEFVAAISGSGGRTYYADSVKGRFTISRDNAKNTVYLQMNSLKPEDTAVYYCAAYKRYYYGYDYWGQGTQVTVSS ? high polyreactivity

---

- PROCEDURE DETAILS: yeast display, Sf9 membrane polyspecificity reagent, FACS + sequencing; frameworks hold sequencing errors
REPORTED METRIC: polyreactivity (PSR sort gate)

// solved cases for polyreactivity (PSR sort gate) follow
| RESIDUE SEQUENCE | RECORDED RESULT |
| --- | --- |
| QVQLVESGGGLVQAGGSLRLSCAASGSIFGEYAMGWYRQAPGKERELVATIRQSGDSTYYAVSVKGRFTISRDTAKNTVYLQMNSLKPEDTAVYYCAADLWLYDYYSEYDYWGPGTQVTVSS | low polyreactivity |
| QVQLVESGGGLVQAGGSLRLSCAASGIIRHNAMGCYRPAPGKERELVAGISRRGGSTYYADSVKGRFTISRDNAKNTVYLQMNSLKPEDTAVYYCNARSAGSDLDYWGQGTQVTVSS | high polyreactivity |
| QVQLVESRGGLVQAGGSLRLSCAASGFIFWRYAMGWYRQAPGKERELVASITYSGGRTYYADSVKGRFTISRDNAKNTVYLQMNILKPEDTAVYYCATARYRYHYYSWGQGTQVTVSS | high polyreactivity |
| QLQLVESGGGLVQAGGSLRLSCAASGRIYLYAMGWSRQAPGKERELVAAITTRAGRTYYADSVKGRFTISRDNAKNTVYFQMNSLKPEDTAVYYCAADGTRYPAYGYWGQGTQVTVSS | low polyreactivity |
| QVQLQESGSGLVQAGGSLRLGCAASGNISDAGYMGWYRQAPGKEREFVAAIAAGSNTNYADSVKGRFTISRDNAKNTVYLQLNSLKPEVTAVFYCAVASYARVQYEYWGQGTQVTVNS | low polyreactivity |

I am curious: what polyreactivity (PSR sort gate) value has been reported for QVQLVESGGGLLQAGGSLRISCAASGRIFYAKAMGRYRQAPGKERELVAGISSGGITNYADSVKGRFTISRDNAKNTVYLQMNSLKPEDTAVYYCAVESWNRWRNRNDYWGQGTQVSVSS ? low polyreactivity

Dear colleague, I am looking for the recorded polyreactivity (PSR sort gate) of the following sequence: QVQLVESGGGLVQAGGSLRLSCAASGFTFYYYAMGWYRQAPGKERELVAAISTRDGNTYYADSVKGRFTISRDNAKNTVYLQMNSLKPEDTAVYYCAADYFRYYPYDYWGQGTQVTVSS low polyreactivity
